System: Malme-3M
test.summary: NCI tumour cell line growth inhibition, 48 h
Calls of active or inactive are those of the source. No stated cut-off is given here; in the data, active = GI50 up to about 1.1 µM and inactive = higher.
Outcomes you can answer with include only these: 1 (yes) for active, 0 (no) for inactive

Ask: Which outcome was assigned to Nc1c(-c2ccc(Cl)c(Cl)c2)c2ccc([N+](=O)[O-])cc2c(=O)n1-c1nc2ccccc2s1 in this test?
Result: 1 (yes)

Ask: Test call for this compound, please: CCC(=O)Nc1ccc(/N=N/N(C)C)cc1
Result: 0 (no)

* * *

Test system: NCI/ADR-RES
test.summary: NCI tumour cell line growth inhibition, 48 h
Activity calls are given as the source filed them. Cut-off read from the data, not from the text of the source: active = GI50 up to about 1.1 µM and inactive = higher.
Choose one outcome from this list and give only that: active, inactive

Some solved cases for reference:
molecule | class.assignment
CCOc1cc(CCNC)c2c(ccc3ccc(OC)c(O)c32)c1OC | inactive
C[C@@H]1O[C@@H](O[C@H]2CC[C@]3(C=O)[C@H]4CC[C@]5(C)[C@@H](C6=CC(=O)OC6)CC[C@]5(O)[C@@H]4CC[C@]3(O)C2)[C@H](O)[C@H](O)[C@H]1O [CONVALLATOXIN] | active
COc1ccc(-c2cc(-c3ccccc3)n(C3OC(COC(C)=O)C(OC(C)=O)C(OC(C)=O)C3OC(C)=O)c(=S)c2C#N)cc1 (stereo not given) | inactive
C=C(C=O)c1c2c(nc3ccccc13)C(=O)c1ccccc1C2=O | active
CO/C(=N\N=C\c1ccccc1F)c1ccncc1 | inactive
CCCCCC[C@H]([C@H](C)O)n1cnc2c(N)ncnc21 | inactive
N#Cc1ccc(Oc2nc3ccccc3nc2C(=O)O)cc1 | inactive
O=C1C=CC2(O[C@H](C3CCCCC3)[C@@H](C3CCCCC3)O2)C(SC(=O)c2ccccc2)C1 (stereo not given in full) | inactive

Ask: Record lookup: outcome of this test for O[C@H]1[C@H]2[C@H](O)C[C@H](CCOCc3ccccc3)CN2C[C@H]1O ?
Result: inactive

Ask: Please state the recorded outcome for this molecule: CSc1c(C(=O)Nc2ccc(Cl)cc2)c(N)n(N)c(=O)c1C#N
Result: inactive

* * *

Tested on: SK-OV-3
test.summary: NCI tumour cell line growth inhibition, 48 h
Activity calls are given as the source filed them. No stated cut-off is given here; in the data, active = GI50 up to about 1.1 µM and inactive = higher.
Pick from true (active), false (inactive) when you respond.

Worked cases, answers included:
molecule | subject.of.test | class.assignment
Clc1ccc(CCNCCNC2(c3cc4ccccc4s3)CCCCC2)cc1Cl | SK-OV-3 | false
COc1ccc(/N=C(C)/C(C)=N/c2ccc(OC)cc2)cc1 | SK-OV-3 | false
CC1=C(C#N)C(=C(C#N)C#N)OC1(C)Cc1ccccc1 (centres undefined) | SK-OV-3 | false

Ask: Recorded test call requested for NC(=O)COC(=O)c1c(Cl)nc2sccn12
Result: false

Ask: What outcome does the record of this test show for c1ccc([P+](CCN2Cc3ccccc3C2)(c2ccccc2)c2ccccc2)cc1 ?
Result: false

Ask: Assay result, entry O=C(CCCl)NN=C1NCCN1 — outcome?
Result: false

Ask: // return assay outcome for CC(=O)C1=C(C)O[C@@H]2O[C@H](COCc3ccccc3)[C@@H](OCc3ccccc3)[C@H](O)[C@@H]2S1
Result: false

Ask: Test call for this molecule, please: CC(CCc1ccccc1)NCC(O)n1c(/N=N/N(C)C)nc2c1c(=O)n(C)c(=O)n2C (centres undefined)
Result: false

Ask: Dear all, I need the recorded test outcome for C[C@@H]1O[C@@H](O[C@H]2CC[C@]3(C=O)[C@H]4CC[C@]5(C)[C@@H](C6=CC(=O)OC6)CC[C@]5(O)[C@@H]4CC[C@]3(O)C2)[C@H](O)[C@H](O)[C@H]1O [CONVALLATOXIN] , thank you.
Result: true

* * *

System: EKVX
test.summary: NCI tumour cell line growth inhibition, 48 h
The source made the active and inactive calls. No stated cut-off is given here; in the data, active = GI50 up to about 1.1 µM and inactive = higher.
Below, each entry is listed with its recorded GI50.

Take a look at these entries with their results.
compound | GI50
ClCc1ccc2ccc3ccc(CCl)nc3c2n1 | 15.6 µM (inactive)
COc1ccc(/C=C2\N/C(=N\N=C/C(O)C(O)C(O)C(O)CO)NC2=O)cc1 (centres undefined) | > 100 µM (inactive)
O=C(c1ccccc1)c1ccc(N2C(=O)/C(=C/c3cccc(Oc4ccccc4)c3)N=C2c2ccccc2)c(N2C(=O)/C(=C/c3cccc(Oc4ccccc4)c3)N=C2c2ccccc2)c1 | 44.2 µM (inactive)
CC(=O)N1c2ccccc2C23CCN(C)CC4C(C)OCC(C4CC2=O)C13 (centres undefined) | > 100 µM (inactive)
COC(=O)C(C(=O)C(=O)Nc1ccc(Br)cc1)c1nc2ccc(Cl)cc2nc1O (centres undefined) | > 100 µM (inactive)
CCO/C(=N/S(=O)(=O)C(F)(F)F)N(C(C)C)C(C)C | > 100 µM (inactive)
COc1ccc(C2Oc3c(cccc3-c3c(-c4ccc(O)cc4)oc4cc(O)cc(O)c4c3=O)C(=O)C2O)cc1O (centres undefined) | > 100 µM (inactive)
O=C(NNC(=S)Nc1ccccc1)C12CC3CC(CC(C3)C1)C2 | 36 µM (inactive)

With those in mind, consider the next compound.
Entry under test: CCC1CN2CCc3cc(OC)c(OC)cc3C2CC1CC1c2cc(OC)c(OC)cc2CCN1C(=O)C1CCCN1 (centres undefined) . Its GI50 was 36.6 µM (inactive)

* * *

Test system: SW-620
test.summary: NCI tumour cell line growth inhibition, 48 h
Active and inactive are the calls of the source. No stated cut-off is given here; in the data, active = GI50 up to about 1.1 µM and inactive = higher. Where a SMILES comes first, the peptide text is derived from it. [ ]: non-standard residue; d: D form. The star is where a group is joined. ξ: configuration not given here. X38 = O=C(OCc1ccccc1)[C@@H]1CCC[C@H]1N*; Fmoc = O=C(OCC1c2ccccc2-c2ccccc21)*; ξW = NC(Cc1c[nH]c2ccccc12)C(=O)O; ξF = NC(Cc1ccccc1)C(=O)O; Boc = CC(C)(C)OC(=O)*; ξK = NCCCCC(N)C(=O)O; ξT = CC(O)C(N)C(=O)O; tBu = CC(C)(C)*
Please answer using one outcome listed in active, inactive

molecule | class.assignment
Brc1cccc(/N=N/N2CCCC2)c1 | inactive
C=C(C=O)c1c2c(nc3ccccc13)C(=O)c1ccccc1C2=O | active
O=C1C=C2C(=NC34CCCCC3C(c3ccccc3)C3=C(c5ccccc5CC3)N24)c2ccccc21 (centres undefined) | inactive

Ask: Hello, I am checking results. What call was entered for CC(C)(C)c1cc2c3c(c1)c(=O)c1cccc4c(O)c5cccc(c2=O)c5c-3c41 ?
Result: inactive

Ask: Give the logged outcome of this assay for the following molecule: C=CC[C@@H]1C=C[C@@H](C(=O)OC)n2c(=O)n(-c3ccccc3)c(=O)n21
Result: inactive

Ask: In this assay, the call recorded for CC1=C(C#N)C(=C(C#N)C#N)OC1(C)Cc1ccccc1 (centres undefined) was what?
Result: inactive

Ask: Hi team, can someone confirm the assay call for CCN(CC)CCCN(c1cc(OC)cc2nccnc12)S(=O)(=O)c1ccc(C)cc1 ?
Result: inactive

Ask: What outcome does the record of this test show for CC(OC(C)(C)C)C(NC(=O)C(CCCCNC(=O)OC(C)(C)C)NC(=O)C(Cc1c[nH]c2ccccc12)NC(=O)C(Cc1ccccc1)NC(=O)OCC1c2ccccc2-c2ccccc21)C(=O)NC(Cc1ccccc1)C(=O)N[C@@H]1CCC[C@H]1C(=O)OCc1ccccc1 (some centres undefined) (Fmoc-[ξF][ξW][ξK](Boc)[ξT](tBu)[ξF]-X38) ?
Result: inactive

Ask: Call for entry Clc1cccc(Cl)c1C1SCc2nc3cc4ccccc4cc3n21 (centres undefined) :
Result: inactive

Ask: Would you mind telling me which call this test gave COC(=O)[C@]1(C)CCC[C@@]2(C)C1CCC1=C[C@@]3(C(C)C)CC[C@]12OO3 (some centres undefined) ?
Result: inactive

Ask: Please indicate how the test categorized [O-][S+]1SC(=S)C2C=CC=CC21 (centres undefined) .
Result: inactive

* * *

Reported GI50 values for a set of compounds
Tested on: BT-549
test.summary: NCI tumour cell line growth inhibition, 48 h
The source made the active and inactive calls. Cut-off read from the data, not from the text of the source: active = GI50 up to about 1.1 µM and inactive = higher. Where a SMILES comes first, the peptide text is derived from it. The star is where a group is joined. CH2Cl = ClC*

Examples from the recorded data:
compound | GI50
CC(=O)NNc1nc(C)c(C(/C=C/c2ccc([N+](=O)[O-])cc2)=N/N)s1 | > 100 µM (inactive)
CNC(=S)N1CCN(C(C)=O)C1=S | 12.9 µM (inactive)
Cc1c(C)c(C)c(-n2c(=O)n(C)c(=O)n2-c2cc(C(C)(C)C)cc(C(C)(C)C)c2O)c(C)c1C | 13.5 µM (inactive)
COC(=O)C1=C(C(=O)OC)N(c2ccncc2)C(c2ccco2)=CC1c1ccccc1[N+](=O)[O-] (configuration not stated) | 6.7 µM (inactive)
CSC(=S)Nc1cc(C)cc(C)n1 | > 100 µM (inactive)

Quick note, GI50 for O=C1C=C(N2CCCC2)C(=O)c2c(O)ccc(O)c21 landed at > 10 µM (inactive)

Input COc1ccc(/C=C2/S/C(=N\c3ccccc3)N(NC(=O)Cc3ccccc3)C2=O)cc1 . Output GI50: > 100 µM (inactive)

So, COc1cc2c(c(O)c1OC)CC1CCC(=O)N1C2c1cccc2ccccc12 (configuration not stated) ? Its GI50 was 22.3 µM (inactive)

So for CN(CCO)Cc1ncccc1O , the logged GI50 turned out to be > 100 µM (inactive)

Reported GI50 for C/C(=N\[N+](C)(C)C)c1ccc(C)c(C)c1 was 58.3 µM (inactive)

The compound CC(=O)NC(CC(C)C)C(=O)NC(Cc1ccccc1)C(=O)CCl (stereo not drawn) (Ac-Leu-Phe-CH2Cl; configuration not given here) showed GI50 equal to 14.9 µM (inactive)

Sure, the documented GI50 for Cn1c2ccccc2c2ccc3c(c21)C(=O)c1ccccc1C3=O is 21.1 µM (inactive)
